src = PubChem BioAssay (NCATS)

Assay: Cell Viability - LYMP2-023 (AID 975);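 further: cells exposed to compound for 24 hours at 37 °C; nearly all actives have a fitted effect of over 55% in size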
Conditions: LYMP2-023 lymphoblastoid cell viability; series mostly up to 92.2 µM
Results filed as inconclusive are left out. Activity calls are given as the source filed them. The call rests on the fitted dose curve; in most records, active means well fitted cell-killing curve with a large enough effect; inconclusive means small, poorly fitted or top-dose-only effect; inactive means flat fitted curve, though single readings scatter.
Pick one: active, inactive

Some solved cases for reference:
> print(dat)
                                   compound  discrete.label
1  CN(C)CCC(c1ccccc1)c1ccccn1 (centres undefined)        inactive
2         O=c1c(-c2ccc(O)cc2)coc2cc(O)ccc12        inactive
3           CCn1cc(C(=O)O)c(=O)c2ccc(C)nc21        inactive
4                     O=C(O)Cc1cccc2ccccc12        inactive
5  CC1=C(/C=C/C(C)=C/C=C/C(C)=C/C(=O)Nc2ccc(O)cc2)C(C)(C)CCC1          active

Problem: Would you mind telling me which call this test gave O=c1c(O)c(-c2ccc(O)cc2)oc2cc(O)cc(O)c12 ?
Result: inactive

Problem: Would you mind telling me which call this test gave O=C1NC(=O)C(c2ccccc2)(c2ccccc2)N1 ?
Result: inactive

Problem: Would you mind telling me which call this test gave CC(=O)c1ccc(S(=O)(=O)NC(=O)NC2CCCCC2)cc1 ?
Result: inactive

Problem: Would you mind telling me which call this test gave CC/C(=C(\c1ccccc1)c1ccc(OCCN(C)C)cc1)c1ccccc1 ?
Result: active
